# System: MS2 coat protein
# Assay Info: apparent KD of MS2 coat protein; designed switch direction (-1 OFF switch, 1 ON switch): -1; higher = weaker reporter binding
# Recorded Conditions: input ligand: FMN 200 uM

| Chain | apparent KD of MS2 coat protein (µM) |
| --- | --- |
| GCAUAUGAUGUAGGAUAUGCGAGACAUGAGGAUCACCCAUGUGAGGGAAGGAGAAGGAGAAGAGAGUAGAAGGAUAGAGUGUGA [Default title] (Eterna round: R96, puzzle: Exclusion NG 2) | 0.0838 |
| CACGAACAUGAGGAUCACCCAUGUCAGGAUAUGAGGCUUUGCGUGCCGCAUUUUGGUCUUAGAAGGGACAGCCG [Eternabot (L2) Solution 49] (Eterna round: R97, puzzle: Exclusion 1) | 0.0223 |
| AAUAGUAAUAAGGAUAUCACUAGCUUCGGCUAGUGAGAAGGUAUUACAUGAGGAUCACCCAUGUGGUCAAUUAA [E6/4-A1] (Eterna round: R97, puzzle: Exclusion 6) | 0.36 |
| GUGCCGCGAGGAUAUACAGACGGGUCCAUUACGUGUCUCGGACUUGAGGAUCACCCAAGUAGAAGGCGUUUCAG [salish99_ex2_r4_624] (Eterna round: R97, puzzle: Exclusion 2) | 0.0207 |
| AAUGUGUGAGGAUAUUAAUUGCAAGCGAAUAGGCUUGUGAUUGAGAAGGCACAUGAGGAUCACCCAUGUUCCAA [JR_Ex4_Sub083] (Eterna round: R97, puzzle: Exclusion 4) | 0.557 |
